Every entry's value here was drawn from ChEMBL document CHEMBL1201862.

Test system: DLD-1
Assay: NCI tumour cell line growth inhibition, 48 h
Active and inactive are the calls of the source. No stated cut-off is given here; in the data, active = GI50 up to about 1.1 µM and inactive = higher.
Select the correct class. Options are active, inactive and nothing else.

Task: GET /call?item= `Cc1cccc(-c2cc(=O)c3cc(C)c(C)c(C(=O)O)c3o2)c1` returns the recorded outcome of this test.
Output: inactive

Task: In this assay, the call recorded for `NC(=O)c1c(-c2ccccc2)c(-c2ccccc2)cc2c(=O)c3ccccc3[nH]c12` was what?
Output: inactive

Task: Given `Cc1cccc(-n2c(N)c(-c3nc4ccccc4[nH]3)sc2=S)c1` , state the outcome it received in this test.
Output: inactive

Task: Could you kindly confirm the outcome this assay logged for `CN(C)CCCNc1ccc2nnn3c4ccc([N+](=O)[O-])cc4c(=O)c1c23` ?
Output: active

* * *

System: OVCAR-8
Assay: NCI tumour cell line growth inhibition, 48 h
Activity calls are given as the source filed them. Rule as the data show it: active = GI50 up to about 1.1 µM and inactive = higher. Square brackets hold non-standard residues; d marks the D form. Peptide text beside a SMILES is read from it.
Form entry, call: pick from true (active), false (inactive)

Task: What was the test verdict on `O=C(Cn1c(=O)oc2ccc(C(=O)c3ccccc3Cl)cc21)c1ccc([N+](=O)[O-])cc1` ?
Output: false

Task: Status in this test for `CSc1nn(C)cc2ncnc1-2` ?
Output: false

Task: Answer briefly: the call reported for N=C(N)NCCC[C@H]1NC(=O)[C@@H](CCC(=O)O)NC(=O)[C@@H](CC(=O)O)NC(=O)[C@@H](CCC(=O)O)NC(=O)[C@H](Cc2c[nH]c3ccccc23)NC1=O (cyclo(W[dE][dD][dE][dR])) in this assay.
Output: false

Task: Outcome logged for C=CCCC(OCOCCOC)c1cc(C)c(O[Si](C)(C)C(C)(C)C)c(C)c1 (stereo unspecified) in this assay:
Output: false

Task: What was the test verdict on CCOC(=O)C1CC(C(=O)c2ccccc2)N2c3ccccc3-c3ccccc3C12 (stereo unspecified) ?
Output: false

Task: What classification did C=C(C)CCC1CC=[N+]([O-])OC1C(C)(C)C (stereo unspecified) end up with in this test?
Output: false

Task: Outcome? NC(=S)N/N=C(/CCN1CCCC1)CC(C1=C(O)C2=CCCCC2OC1=O)c1ccccc1 (stereo unspecified)
Output: false

Task: So what was the verdict on `O=C(O)CN1CCNCCN(CC(=O)O)CCN(CC(=O)O)CCNCC1` in this test?
Output: false

Task: Per the records of this test, what outcome belongs to CCCCCCCCCC(=O)OCC1(CO)C/C(=C/CC(C(C)C)C(C)C)C(=O)O1 (stereo unspecified) ?
Output: false

Task: Which result was noted for this molecule in the test: O=C(CC(=O)Nc1ccccc1Cl)NNC(Sc1ccccc1)c1cc(/N=N/c2ccc(Br)cc2)ccc1O (stereo unspecified)
Output: true

Task: Hello, I am checking results. What call was entered for `O=C1NC(=S)NC(=O)C1=Cc1ccc[nH]1` ?
Output: false

Task: Short answer needed: outcome of this test for NC(=O)CC(N)C(=O)NC(Cc1ccccc1)C(=O)NC(Cc1ccccc1)NC(=O)C(Cc1c[nH]c2ccccc12)C(=O)O (stereo unspecified) ?
Output: false

Task: Test call for this molecule, please: `CC(=O)N(C(C)=O)c1cc2c3c(c1)CCCN3CCC2`
Output: false

Task: How was `Nc1ccc(S(=O)(=O)c2ccc(NC(=O)c3cccnc3)cc2)cc1` classified in this test?
Output: false

Task: Fill in: this test's call for `CC1=C(C(=O)Nc2ccccc2C)C(c2ccccc2C)C(C(=O)Nc2ccccc2C)=C(C)N1` is ___
Output: false

Task: # fetch the recorded call for CC12CC(=O)NN=C1c1ccccc1C2 (stereo unspecified) here
Output: false

Task: I would be grateful if you could indicate the recorded call for `CN(C)CCCNc1ccc2nnn3c4ccc([N+](=O)[O-])cc4c(=O)c1c23` .
Output: true

Task: Recorded test outcome, item CC1=C(C(=O)OC(C)C)C(c2cccc([N+](=O)[O-])c2)C(C(=O)OC(CO[N+](=O)[O-])CO[N+](=O)[O-])=C(C)N1 (stereo unspecified)
Output: false

Task: Tell me the assay call for `Oc1c(Cl)c2nccnc2c2ccccc12` please.
Output: false

Task: I would be grateful if you could indicate the recorded call for `N/C(=N\N=C\c1cc2ccccc2s1)c1cnccn1` .
Output: false

Task: For `COc1ccc2nc3cc(Cl)ccc3c(SCC(=O)Nc3ccccc3-c3ccccc3NC(=O)CSc3c4ccc(Cl)cc4nc4ccc(OC)cc34)c2c1` , which call appears in the assay record?
Output: false
